system: HS 578T breast; test: NCI tumour cell line growth inhibition, 48 h
Consider the following molecules; for each one, report its TGI.

Please report the recorded TGI for C=C1CCC2C(C)(CO)C(O)CCC2(C)C1C/C=C1\C(=O)OCC1O (stereo not given) . > 100 µM

Looking for the measured TGI of COc1ccc(N=C2C(=O)Nc3ccc(Br)cc32)cc1 , can you help? > 100 µM

Consider the molecule shown here: O=[N+]([O-])/C=C/c1cn(CCCCCCCCn2cc(/C=C/[N+](=O)[O-])c3ccccc32)c2ccccc12 What is its recorded TGI? > 10 µM

Given the molecule COc1ccc(-c2nn(-c3cccc(Cl)c3)cc2-c2c(C#N)c(=O)n3[nH]c(-c4ccc(C)o4)nc3c2C#N)cc1 , what is its reported TGI? > 50 µM

# get_value(readout='TGI', item= CCOC(=O)CC1(N)CC2c3ccccc3OC(=O)C2C(=O)N1 (stereo not given) ) > 100 µM

====

tested on: SN12C renal; assay: NCI tumour cell line growth inhibition, 48 h
Give measured TGI for each item. Keep answers brief.

For the molecule COc1cc2ccc(CC(=O)O)cc2cc1OC , what TGI is on record? > 100 µM

Fill in: TGI of Cc1ccc(-n2cc(/C(N)=N/O)c3ccccc3c2=O)cc1 is ___ > 100 µM

Given the molecule CN(Cc1cnc2nc(N)nc(N)c2n1)c1c(Cl)cc(C(=O)NC(CCC(=O)O)C(=O)O)cc1Br (centres undefined) , what is its reported TGI? > 100 µM

Look up TGI: Cc1ncc([N+](=O)[O-])n1CCOc1ccc(C(=O)/C=C/c2ccc(C(F)(F)F)cc2)cc1 11.6 µM

====

system: SK-MEL-2 melanoma; assay: NCI tumour cell line growth inhibition, 48 h
Could you please report measured TGI for the items listed next?

Item O=[N+]([O-])/C=C/c1cn(CCCCCCCCn2cc(/C=C/[N+](=O)[O-])c3ccccc32)c2ccccc12 has what recorded TGI? > 10 µM

Using the record for O=c1ccc(=O)c2c1c1[nH]c3ccccc3c1c1c(=O)c3ccccc3c(=O)c21 , report its TGI. > 10 µM

Look up TGI for this molecule: CSC1=C(C)C(/C=N/Nc2ccc([N+](=O)[O-])cc2)=C(C)N(c2ccccc2)S1(=O)=O > 100 µM

Data request, read-out TGI, for CC1(c2ccc(Cl)cc2)c2ccccc2C(=O)N1CCCN1C(=O)c2ccccc2C1=O (centres undefined) 46.3 µM

Consider the molecule shown here: COc1cc2c(cc1OC)C(Sc1ccc(Cl)cc1)c1c(nc(N)c(C#N)c1N)O2 (centres undefined) What is its recorded TGI? 2.55 µM

Consider the molecule shown here: O=c1c2ccccc2n2nnc3ccc(NCCNCCO)c1c32 What is its recorded TGI? 10.5 µM

Entry COc1ccc2c(c1)CCC1C2CCC2(C)C(NC(=O)CCCCC3CCSS3)CCC12 (centres undefined) has what TGI? > 100 µM

Entry under review: c1ccc(-c2nc3ccccc3[nH]2)c(OCCCCCOc2ccccc2-c2nc3ccccc3[nH]2)c1 . Reported TGI? 24.6 µM

What does the data say about its TGI? Entry: COc1ccc(/C(C#N)=C2/O/C(=N/N)C(c3ccc(OC)c(OC)c3)C2=O)cc1OC (centres undefined) > 100 µM

# lookup: TGI of COc1cc(C(=O)Nc2ccc(-c3nc4ccccc4[nH]3)cc2)cc(OC)c1OC 29.5 µM

Requested field: TGI. Item: COc1ccc2c3c(c4cc(OC)c(OC)cc4c2c1)CN1CCC[C@H]1[C@@H]3O 0.591 µM

Reported TGI, molecule Cn1cc(C2=C(c3cccc([N+](=O)[O-])c3)C(=O)NC2=O)c2ccccc21 : ____ 17.2 µM

What measured TGI goes with O=[N+]([O-])/C(=C/C=C/c1ccccc1)c1ccccc1 ? 3.93 µM

// query TGI value for entry CCOc1ccccc1NC(=O)C1=C(C)NC(C)=C(C(=O)Nc2ccccc2OCC)C1c1ccc2c(c1)OCO2 55.3 µM

Quick one: TGI for COc1cc2c(c(OC)c1OC)-c1ccc(SC)c(=O)cc1C(CC(=O)Oc1ccccc1F)C2 (centres undefined) ? 0.125 µM

// returns reported TGI for input C#CCN(CCCOc1ccc(Cl)cc1Cl)CCCSC(=O)CCCCCN1/C(=C\C=C2/CCCC(/C=C/C3=[N+](CCCCCC(=O)[O-])c4ccccc4C3(C)C)=C2Cl)C(C)(C)c2ccccc21 4.2 µM

Which TGI is listed for C=C(CCC(=O)N(CCc1c[nH]c2ccccc12)C(=O)c1ccccc1CSCC)C(=O)OC ? > 100 µM

Entry Cc1nc2sc(C(=O)Nc3cccc(Cl)c3)c(N)c2cc1C(O)c1ccccc1 (centres undefined) : reported TGI = ? 26.5 µM

Recorded TGI of COc1ccc(S(=O)(=O)NNS(C)(=O)=O)cc1OC , please. > 100 µM

Record request: TGI value, item Clc1cc(Cl)cc(Nc2ccc3c(OCCCN4CCOCC4)cccc3n2)c1 9.51 µM

What value of TGI has been recorded for this entry: N#Cc1nc(-c2ccsc2)oc1N > 100 µM

Need TGI of Cc1c(-c2ccccc2)oc(=O)c2ccccc12 , thanks. 38.5 µM

So what's the measured TGI for this one? Nc1cccc(C(=O)/C=C/c2ccccc2O)c1 > 100 µM

Requested field: TGI. Item: CCCCCCCC(=O)OC[n+]1cccc(-c2c(COC(=O)NC(C)C)c(COC(=O)NC(C)C)c3n2CCC3)c1 > 100 µM

Which TGI reading was recorded for the molecule O=C1Cc2c([nH]c3ccccc23)-c2cc(Br)ccc2N1 ? > 100 µM

Requested read-out: TGI. Entry: O=C([CH-]C(=O)c1ccccc1)c1ccccc1.[CH2-]C.[CH2-]C.[Tl+3] > 92.4 µM

Report TGI for CCOc1ccc(N=Nc2c(-c3ccccc3)nn(C(=O)CC(=O)Nc3ccccc3Cl)c2-c2ccccc2)cc1 please. > 100 µM

TGI lookup needed for CC(=O)CCN1CC2CN=NC2(C#N)C1 (centres undefined) , thanks. > 100 µM

Any idea what its TGI is? The molecule is CC(=O)Nc1ccc2c(c1)[nH]c(=O)c1cc(Cl)ccc12 > 100 µM

Need TGI of CC(=O)N1CN2C(=O)CCC2c2cc(C)ccc21 (centres undefined) , thanks. > 100 µM

Which TGI value belongs to CCCCCCCCCCCCCCCC[N+](C)(C)CCl ? 49.8 µM

Which TGI reading was recorded for the molecule Cc1c(C)c2c(c(N)c1C#N)C(=O)N(NC(=S)Nc1ccccc1)C2=O ? > 100 µM

State the recorded TGI for this entry: CC1=NN(C(=O)CC(=O)Nc2cccc(C)c2)C(=O)C1N=Nc1ccc(C(=O)O)cc1 (centres undefined) > 100 µM

Need TGI, item CNC1CC(n2cc(C)c(=O)[nH]c2=O)OC1CO (centres undefined) > 100 µM

// returns reported TGI for input COc1ccccc1CNCCCN1C(=O)c2ccc3c4c(ccc(c24)C1=O)C(=O)N(CCCNCCCCN)C3=O 0.49 µM

Sample COc1cc(-c2cc(OC)c(OC)c3ccc(Br)cc23)c2cc(Br)ccc2c1OC — what was its TGI? 56 µM

Would you kindly share the measured TGI for CCOC(=O)/C=C(/OCC)[C@@H]1C(C(=O)c2ccc(Cl)cc2)[C@@H]1/C(=C\C(=O)OCC)OCC (some centres undefined) ? > 100 µM

Need TGI of CC1(C)O[C@@H](CCl)C[C@@H](C#N)O1 , thanks. > 100 µM

Returns the measured TGI for the input molecule. Input: COc1ccccc1-c1cc(=O)c2cccnc2[nH]1 > 100 µM

====

Exercise: state measured GI50 for each of the molecules provided.

Form entry - test system: NCI-H460 lung; read-out: GI50; molecule: O=C(Cc1csc2nc(-c3ccc(Br)cc3)cn12)N/N=C/c1ccccc1O 15.7 µM

State its GI50 on NCI-H460 lung: CCCCCCC1CCCCN1C(c1ccccc1)C(O)c1ccccc1 (stereo unspecified) 3.92 µM

Tell me reported GI50 for Cc1nc2sc(C(=O)Nc3cccc(Cl)c3)c(N)c2cc1C(O)c1ccccc1 (stereo unspecified) , tested with NCI-H460 lung. 0.379 µM

Query GI50 on NCI-H460 lung for COc1cc(/C=C/C(=O)/C=C/c2ccc(-n3ccnc3)cc2)ccc1O 14.1 µM

Request - read-out GI50 | tested on NCI-H460 lung | molecule COC(=O)c1sc(=S)c2sc(C(=O)OC)c(C(=O)OC)c2c1C(=O)OC 44.3 µM

Short answer please: GI50, NCI-H460 lung, entry Oc1ccccc1/C=N/c1nc(-c2ccccc2)cs1 > 100 µM

====

test system: OVCAR-5 ovarian; experiment: NCI tumour cell line growth inhibition, 48 h
Answer each item with its documented GI50.

Give GI50 (OVCAR-5 ovarian) of the following compound: COc1ccccc1CNCCCN1C(=O)c2ccc3c4c(ccc(c24)C1=O)C(=O)N(CCCNCCCCN)C3=O 1.06 µM

Kindly state the measured GI50 obtained for O=C(/C=C/c1ccccn1)c1ccccc1 with OVCAR-5 ovarian. 6.52 µM

I'm curious: which GI50 was measured for CN1CCC(C(=O)Nc2n[nH]c3nnc(-c4ccccc4)cc23)CC1 tested on OVCAR-5 ovarian? > 25 µM

Requested read-out GI50, target or system OVCAR-5 ovarian, entry COc1ccc(C2=NOC3=c4ccccc4=CSC3=C2c2ccccc2)cc1 80.1 µM

Provide value of GI50 for this record tested with OVCAR-5 ovarian: COc1ccc([C@H]2c3[nH]c4ccccc4c3C[C@H]3C(=O)N(CCCCCCC(=O)NO)CC(=O)N23)cc1 1.49 µM

# returns recorded GI50 (system: OVCAR-5 ovarian) for COc1cc(-c2ccc[nH]2)[nH]c1/C=C1\N=C(C)C(C(=O)NC(C)C)=C1C 2.97 µM

Return GI50 measured with OVCAR-5 ovarian given this compound: OCCN1CCCN(CCCN2c3ccccc3Sc3ccc(C(F)(F)F)cc32)CC1 3.21 µM

Write down the reported GI50 of CCCC/C=C1/CCC(CN(C)C)C1=O (centres undefined) , test system: OVCAR-5 ovarian. 0.0971 µM

Requested read-out GI50, target or system OVCAR-5 ovarian, entry O=C(Nc1ccc(-n2cc(-c3ccncc3)c(-c3ccc(Cl)c(O)c3)n2)cc1)c1ccc(Cl)c(Cl)c1 10.2 µM

Reference for the values: PubChem BioAssay (NCI)
